Reference source: paper PMC12362615

experiment: Pharmacokinetic studies in mice; format: in vivo, male CD1 mice; conditions: male, CD1, mouse, plasma, IV, 3 mg/kg
endpointName: AUC(0-t) (µM·h)

compoundStructureString | AUC(0-t) [µM·h]
c1cc(OC2CCNCC2)cc(-c2onc3ccc(-c4nnn[nH]4)cc23)c1 | 10.8

P: Clc1cnc(Oc2cccc(-c3onc4ccc(-c5nnn[nH]5)cc34)c2)c(Cl)c1
Q: O=C(Nc1cccc(-c2onc3ccc(-c4nnn[nH]4)cc23)c1)C1CC1
R: FC(F)(F)Oc1ccc(-c2onc3ccc(-c4nnn[nH]4)cc23)cc1
Task: List the 3 entries from lowest AUC(0-t) to highest AUC(0-t) value. Answer by listing the labels in the requested order.
Output: P, Q, R

----------
Target: purified recombinant human IP6K2 kinase domain (Homo sapiens)
Sequence (Q9UHH9 1-426): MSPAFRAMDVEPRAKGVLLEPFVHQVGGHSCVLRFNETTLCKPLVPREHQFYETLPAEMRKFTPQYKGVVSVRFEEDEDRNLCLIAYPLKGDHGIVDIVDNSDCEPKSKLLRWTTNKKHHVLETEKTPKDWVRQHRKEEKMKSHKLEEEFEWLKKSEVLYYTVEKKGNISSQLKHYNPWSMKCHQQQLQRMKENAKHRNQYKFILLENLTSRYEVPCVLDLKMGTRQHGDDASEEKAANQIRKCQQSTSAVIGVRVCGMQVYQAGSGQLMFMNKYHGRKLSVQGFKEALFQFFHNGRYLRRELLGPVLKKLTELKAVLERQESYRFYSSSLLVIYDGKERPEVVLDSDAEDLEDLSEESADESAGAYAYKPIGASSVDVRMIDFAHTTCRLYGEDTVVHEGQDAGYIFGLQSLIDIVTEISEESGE
Experiment: IP6K2 IC50 determination, malachite green Pi release assay
Assay type: biochemical
Conditions: Table S1; ratio of IC50 values
Description: IP6K2 IC50 values were determined using the purified recombinant human IP6K2 kinase domain expressed in a 384-well clear polystyrene plate (VWR 82051-264). […] Pi release was determined with a malachite green colorimetric assay. […] Pi release was quantified from the absorbance at 620 nm by using appropriate standards.
endpointName: IP6K2/IPMK

compound | IP6K2/IPMK
Cc1cc(C)cc(-c2onc3ccc([C@H]4C[C@@H]4C(=O)O)cc23)c1 (racemic) | 1.6

A: Clc1cnc(Oc2cccc(-c3onc4ccc(-c5nnn[nH]5)cc34)c2)c(Cl)c1
B: c1cc(OC2CCNCC2)cc(-c2onc3ccc(-c4nnn[nH]4)cc23)c1
Task: I'm curious, which of these has a smaller IP6K2/IPMK number: A or B ? Identify your selection by its label.
Output: A
(A: 1.8, B: 4.9)

----------
target: purified recombinant human IPMK kinase domain (Homo sapiens); assay: IPMK IC50 determination, Kinase-Glo assay; type: biochemical; conditions: Kinase-Glo assay; 12.5 μM Ins(1,4,5)P3, 10 μM ATP; read-out: IC50 toward recombinant human IPMK
endpointName: IC50 (nM)

These solved cases illustrate the format of a correct answer.
compoundStructureString | endpointUnit | IC50
c1cc(OC2CCNCC2)cc(-c2onc3ccc(-c4nnn[nH]4)cc23)c1 | nM | 31
FC(F)(F)Oc1ccc(-c2onc3ccc(-c4nnn[nH]4)cc23)cc1 | nM | 18
O=C(Nc1cccc(-c2onc3ccc(-c4nnn[nH]4)cc23)c1)C1CC1 | nM | 30
Cc1cc(C)cc(-c2onc3ccc(-c4nnn[nH]4)cc23)c1 | nM | 25

A: FC(F)(F)c1ccc(-c2onc3ccc(-c4nnn[nH]4)cc23)cc1
B: c1cc(-c2onc3ccc(-c4nnn[nH]4)cc23)cc(C2CCN(C3CCC3)CC2)c1
C: O=C(Nc1ccc(-c2onc3ccc(-c4nnn[nH]4)cc23)cc1)C1CC1
Task: List the 3 entries from lowest IC50 to highest IC50 value. Answer by listing the labels in the requested order.
Output: A, B, C
